Values compiled from patent US20110064740A1.

The reader will find reported IC50 values listed item by item below.
- TARGET: T1, human Aβ peptide (length not stated) (human, UniProt P05067 672-711)
- T1 construct: also called β-amyloid in solution
- T1 sequence (P05067 672-711): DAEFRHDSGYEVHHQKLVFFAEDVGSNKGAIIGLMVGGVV
- MEASUREMENT DESCRIPTION: competition ELISA, β-amyloid in solution pre-incubated with the antibody; competitor: immobilised mouse 2E7; Experiment 1

# BINDER, UNITS OF MEASURE, IC50
measured = [
    ("Chimeric 2E7 antibody (2E7c) (antibody, human IgG1, V domains shown, Parent murine V regions on human IgG1 (L235A, G237A) and human C kappa; also called 2E7c Chimera; not shown: human IgG1 heavy chain constant region, Fc mutated (L235A, G237A); human C kappa constant region) VH: EVKLVESGGGLVQPGGSLKLSCAVSGFTFSDNGMAWVRQAPRKGPEWIAFISNLAYSIDYADTVTGRFTISRDNAKNTLYLEMSSLRSEDTAMYYCVSGTWFAYWGQGTLVTVSA VL: DVVLTQTPLSLPVSLGDQASISCRVSQSLLHSNGYTYLHWYLQKPGQSPKLLIYKVSNRFSGVPDRFSGSGSGTDFTLKISRVEAEDLGVYFCSQTRHVPYTFGGGTKLEIK", "mg/L", 0.052),
    ("Humanised 2E7 variant H1L1 (antibody, human IgG1, kappa, V domains shown, Human IgG1 with L235A and G237A, human kappa; also called L1+H1) VH: EVQLVESGGGLVQPGGSLRLSCAASGFTFSDNGMAWVRQAPGKGLEWVSFISNLAYSIDYADTVTGRFTISRDNAKNSLYLQMNSLRAEDTAVYYCVSGTWFAYWGQGTLVTVSS VL: DIVMTQSPLSLPVTPGEPASISCRVSQSLLHSNGYTYLHWYLQKPGQSPQLLIYKVSNRFSGVPDRFSGSGSGTDFTLKISRVEAEDVGVYYCSQTRHVPYTFGGGTKVEIKR", "mg/L", 0.114),
    ("Humanised 2E7 variant H2L1 (antibody, human IgG1, kappa, V domains shown, Human IgG1 with L235A and G237A, human kappa; also called L1+H2; H2L1 whole IgG) VH: EVQLVESGGGLVQPGGSLRLSCAVSGFTFSDNGMAWVRQAPGKGLEWVSFISNLAYSIDYADTVTGRFTISRDNAKNSLYLQMNSLRAEDTAVYYCVSGTWFAYWGQGTLVTVSS VL: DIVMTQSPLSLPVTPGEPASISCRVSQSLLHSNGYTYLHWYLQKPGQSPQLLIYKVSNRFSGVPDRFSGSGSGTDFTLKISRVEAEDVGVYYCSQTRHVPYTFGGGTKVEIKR", "mg/L", 0.075),
]
